Biological target: human GcgR (Homo sapiens)
Sequence (P47871 26-477): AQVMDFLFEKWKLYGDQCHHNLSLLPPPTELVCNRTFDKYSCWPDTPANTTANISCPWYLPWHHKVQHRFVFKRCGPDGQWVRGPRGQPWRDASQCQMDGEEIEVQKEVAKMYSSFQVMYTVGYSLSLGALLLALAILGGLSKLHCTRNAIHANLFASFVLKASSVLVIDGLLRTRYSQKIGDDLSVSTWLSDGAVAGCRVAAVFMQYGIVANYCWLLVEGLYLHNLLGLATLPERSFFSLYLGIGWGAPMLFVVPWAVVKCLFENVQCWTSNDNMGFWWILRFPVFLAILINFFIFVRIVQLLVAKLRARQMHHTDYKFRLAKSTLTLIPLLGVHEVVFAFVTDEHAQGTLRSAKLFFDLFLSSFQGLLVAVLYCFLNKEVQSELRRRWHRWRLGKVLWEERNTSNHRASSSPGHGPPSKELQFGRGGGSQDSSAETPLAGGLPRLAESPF
Assay: Functional cAMP activity in the presence of 1% HSA
Format: cell-based
Conditions: read-out: cAMP Rel EC50, hGcgR
Starred links: 1 amine or outer side, 2 acyl side, 3 side chain; linkers in the order of their positions; H or OH if unused. Non-standard residues stand in square brackets, D forms with d. Groups on a side chain read outwards from the residue. No end group written: not given here. *: point of attachment. C18 diacid = O=C(O)CCCCCCCCCCCCCCCCC(=O)*; αMePhe(2-F) = C[C@](N)(Cc1ccccc1F)C(=O)O; γGlu = O=C(O)[C@H](CCC(=O)[*:2])N[*:1]; αMe4Pal = C[C@](N)(Cc1ccncc1)C(=O)O; αMeY = C[C@](N)(Cc1ccc(O)cc1)C(=O)O; Hyp = O=C(O)[C@@H]1C[C@@H](O)CN1; 4Pal = N[C@@H](Cc1ccncc1)C(=O)O; αMeL = CC(C)C[C@](C)(N)C(=O)O; αMeS = C[C@](N)(CO)C(=O)O; Orn = NCCC[C@H](N)C(=O)O; AEEA = NCCOCCOCC(=O)O; Aib = CC(C)(N)C(=O)O
measured-endpoint: EC50 (µM)

- substance: "H-Y[Aib]QGT[αMePhe(2-F)]TSD[4Pal]SILLDKK([γGlu-γGlu-C18 diacid])AQ[Aib]AFIEYLEEGGPSSGAPPPSGGEE-NH2 [Example 612]"
  test-result: 0.64
- substance: "H-Y[Aib]QGT[αMePhe(2-F)]TSD[4Pal]SI[αMeL]LD[Orn]K([AEEA-γGlu-C18 diacid])AQ[αMe4Pal][Orn]FI[dE][αMeY]LIEGGPSSGAPPPESEE-NH2 [Example 756]"
  test-result: 0.372
- substance: "Y[Aib]QGT[αMePhe(2-F)]TSD[4Pal][αMeS]I[αMeL]LD[Orn]K([γGlu-γGlu-C18 diacid])AQ[Aib][Orn]FI[dE][αMeY]LSEGGPSSGEPPPSGSEE-NH2 [Example 569]"
  test-result: 0.697
- substance: "H-Y[Aib]QGTFTSD[4Pal]S[Orn][αMeL]LD[Orn]K([γGlu-γGlu-C18 diacid])AQ[αMe4Pal]EFIE[αMeY]LIEGGPSSGAPPPSGSEE-NH2 [Example 973]"
  test-result: 2.27
- substance: "H-Y[Aib]QGTFTSDFS[Orn][αMeL]LDKK([AEEA-γGlu-C18 diacid])AQ[Aib]AFIEYLLEGGPSSGAP[Hyp]PGGS-NH2 [Example 236]"
  test-result: 0.309
- substance: "H-Y[Aib]QGTFTSD[4Pal]SQ[αMeL]LD[Orn]K([dE-γGlu-C18 diacid])AQ[αMe4Pal]AFIE[αMeY]LIE[Aib]GPSSGEPPPSGSEE-NH2 [Example 1103]"
  test-result: 1.35
- substance: "H-Y[Aib]QGT[αMePhe(2-F)]TSD[4Pal][αMeS]I[αMeL]LD[Orn]K([γGlu-γGlu-C18 diacid])AQ[αMe4Pal]EFI[dE][αMeY]LIEGGPPS[Aib][Orn]PPP[Orn]GS-NH2 [Example 1226]"
  test-result: 0.184
- substance: "H-Y[Aib]QGT[αMePhe(2-F)]TSD[4Pal][αMeS]I[αMeL]LD[Orn]K([γGlu-γGlu-C18 diacid])AQ[αMe4Pal]EFI[dE][αMeY]LIEGGPSSGAPPPSGGGE-NH2 [Example 743]"
  test-result: 0.133
